Taken from patent US20120225909A1.

Below is a list of entries, each paired with its recorded Emax value.
TARGET_OR_TEST_SYSTEM: human α1A-adrenergic receptor (Homo sapiens)
TEST_SUMMARY: Test Case 4-A: human α1A-adrenergic receptor agonist activity (HEK293, Ca flux, Fura-2)
Assay type: cell-based
Parameters: expressed in transfected cells; host or cells: HEK293 cells, pcDNA3.1
ASSAY_CONTEXT: HEK293; read-out: α1A receptor I.A.
Please give a number only; it is taken to be in %.

// below: answered molecules
COc1n[nH]c2cc(OCCNC[C@H](O)c3cccc(NS(=O)(=O)c4cccc(Cl)c4)c3)ccc12 [ex13] : 0
CCc1n[nH]c2cc(OCCNC[C@H](O)c3cccc(NS(=O)(=O)c4cccc(Cl)c4)c3)ccc12 [ex119] : 0
COc1n[nH]c2cc(OCCNC[C@H](O)c3cccc(NS(=O)(=O)c4cc(N)ccc4F)c3)ccc12 [ex6] : 0
CNc1cccc(S(=O)(=O)Nc2cccc([C@@H](O)CNCCOc3ccc4c(C)n[nH]c4c3)c2)c1 [ex239] : 0
Cc1n[nH]c2cc(OCCNC[C@H](O)c3cccc(NS(=O)(=O)c4ccccc4N)c3)ccc12 [ex53] : 0

QUERY: Lab note: need Emax with human α1A-adrenergic receptor (Homo sapiens) for entry COc1n[nH]c2cc(OCCNC[C@H](O)c3cccc(NS(=O)(=O)C4CC4)c3)ccc12 [ex17] , please look it up.
RESULT: 13

QUERY: Lab note: need Emax with human α1A-adrenergic receptor (Homo sapiens) for entry O=S(=O)(Nc1cccc([C@@H](O)CNCCOc2ccc3c(OC(F)F)n[nH]c3c2)c1)C1CCC1 [ex115] , please look it up.
RESULT: 35

QUERY: Lab note: need Emax with human α1A-adrenergic receptor (Homo sapiens) for entry COc1n[nH]c2cc(OCCNC[C@H](O)c3cccc(NS(=O)(=O)c4cccc(N)c4)c3)ccc12 [ex1] , please look it up.
RESULT: 0

QUERY: Lab note: need Emax with human α1A-adrenergic receptor (Homo sapiens) for entry Cc1n[nH]c2cc(OCCNC[C@H](O)c3cccc(NS(=O)(=O)c4ccccc4Cl)c3)ccc12 [ex51] , please look it up.
RESULT: 0

QUERY: Lab note: need Emax with human α1A-adrenergic receptor (Homo sapiens) for entry Nc1cccc(S(=O)(=O)Nc2cccc([C@@H](O)CNCCOc3ccc4c(OC(F)F)n[nH]c4c3)c2)c1 [ex104] , please look it up.
RESULT: 0

---

TARGET_OR_TEST_SYSTEM: human α1A-adrenergic receptor (Homo sapiens)
Sequence (P35348 1-466): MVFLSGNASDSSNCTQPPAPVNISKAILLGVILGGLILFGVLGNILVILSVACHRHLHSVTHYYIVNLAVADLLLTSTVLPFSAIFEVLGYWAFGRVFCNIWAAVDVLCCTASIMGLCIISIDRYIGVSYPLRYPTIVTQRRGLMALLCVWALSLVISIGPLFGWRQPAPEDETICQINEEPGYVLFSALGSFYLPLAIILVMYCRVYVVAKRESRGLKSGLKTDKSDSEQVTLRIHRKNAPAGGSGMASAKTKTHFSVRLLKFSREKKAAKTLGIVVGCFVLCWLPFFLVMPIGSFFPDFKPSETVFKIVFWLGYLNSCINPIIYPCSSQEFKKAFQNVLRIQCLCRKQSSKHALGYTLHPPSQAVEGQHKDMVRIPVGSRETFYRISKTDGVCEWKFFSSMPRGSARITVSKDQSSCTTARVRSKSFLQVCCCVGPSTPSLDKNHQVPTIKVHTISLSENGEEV
TEST_SUMMARY: Test Case 4-B: human α1A-adrenergic receptor agonist activity (Cerep cellular functional GPCR, alpha 1A)
Type: cell-based
Parameters: expressed in transfected cells
ASSAY_CONTEXT: concentration 10 μM, norepinephrine = 100%
Text: Measurement of Human α1A-Adrenergic Receptor Agonist Activity The human α1A-adrenergic receptor agonist activity] can be measured by […] Functional GPCR·Gs, alpha 1A (Ref. 722-36a) listed on p. 52 of the Cerep 2008 CATALOG IN VITRO PHARMACOLOGY & ADME-TOX.
Rule: α1 receptor % of Control Agonist Response, Control; Norepinephrine below 10% gives Fulfilled, anything at or above gives Not fulfilled.

CCc1n[nH]c2cc(OCCNC[C@H](O)c3cccc(NS(=O)(=O)c4cnn(C)c4)c3)ccc12 [ex135] : Fulfilled
O=S(=O)(Nc1cccc([C@@H](O)CNCCOc2ccc3c(C(F)(F)F)n[nH]c3c2)c1)c1cn[nH]c1 [ex198] : Not fulfilled
COc1n[nH]c2cc(OCCNC[C@H](O)c3cccc(NS(=O)(=O)c4cccnc4F)c3)ccc12 [ex24] : Fulfilled
Cc1n[nH]c2cc(OCCNC[C@H](O)c3cccc(NS(=O)(=O)c4ccc(F)c(N)c4)c3)ccc12 [ex58] : Fulfilled
O=S(=O)(Nc1cccc([C@@H](O)CNCCOc2ccc3c(Cl)n[nH]c3c2)c1)c1ccsc1 [ex157] : Fulfilled

QUERY: Strictly below 10% in α1 receptor % of Control Agonist Response, Control; Norepinephrine? NC[C@H](O)c1ccc(O)c(O)c1 [Norepinephrine, reference compound]
RESULT: Not fulfilled

QUERY: Strictly below 10% in α1 receptor % of Control Agonist Response, Control; Norepinephrine? Cc1n[nH]c2cc(OCCNC[C@H](O)c3cccc(NS(=O)(=O)c4cccnc4F)c3)ccc12 [ex86]
RESULT: Fulfilled

QUERY: Strictly below 10% in α1 receptor % of Control Agonist Response, Control; Norepinephrine? CCc1n[nH]c2cc(OCCNC[C@H](O)c3cccc(NS(=O)(=O)c4ccccc4F)c3)ccc12 [ex128]
RESULT: Not fulfilled

QUERY: Strictly below 10% in α1 receptor % of Control Agonist Response, Control; Norepinephrine? O=S(=O)(Nc1cccc([C@@H](O)CNCCOc2ccc3c(OC(F)F)n[nH]c3c2)c1)c1ccccc1F [ex107]
RESULT: Not fulfilled
